All values here come from the RNAGym collection of RNA variant scans (doi:10.7554/elife.80360).

B1: CPEB3 Ribozyme (parent)
chain: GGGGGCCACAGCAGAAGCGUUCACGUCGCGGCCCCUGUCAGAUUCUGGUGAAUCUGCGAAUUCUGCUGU

Variants of: B1
protocolDescription: self-cleavage, relative activity (ratio to wild type); higher = more cleavage; co-transcriptional
Each entry gets rule not met if its self-cleavage stays under 0.4, and rule met if its self-cleavage is 0.4 or above.

U26G G47U    rule met
G5U A8U    rule not met
G14U G48U    rule met
G19C U44C    rule not met
A13U U53C    rule not met

Request: Exam item: decide whether the reported self-cleavage for G11A U44A is at least 0.4.
Response: rule met

Request: Next: G58A
Response: rule met

Request: Next: G50U U55G
Response: rule met

Request: Next: A10G G30A
Response: rule met
